Measured IC50 accompanies every entry in the list below.
target: human chemokine receptor CXCR7 (Homo sapiens (Human), UniProt P25106); assay: Tango CXCR7-bla U2OS beta-arrestin recruitment assay (beta-lactamase reporter, FRET), antagonism of CXCL12/SDF1-α; type: cell-based; settings: antagonistic effect on CXCR7; Tango CXCR7-bla U2OS cells, CXCL12/SDF1-α at its EC80
Sequence (P25106 whole entry): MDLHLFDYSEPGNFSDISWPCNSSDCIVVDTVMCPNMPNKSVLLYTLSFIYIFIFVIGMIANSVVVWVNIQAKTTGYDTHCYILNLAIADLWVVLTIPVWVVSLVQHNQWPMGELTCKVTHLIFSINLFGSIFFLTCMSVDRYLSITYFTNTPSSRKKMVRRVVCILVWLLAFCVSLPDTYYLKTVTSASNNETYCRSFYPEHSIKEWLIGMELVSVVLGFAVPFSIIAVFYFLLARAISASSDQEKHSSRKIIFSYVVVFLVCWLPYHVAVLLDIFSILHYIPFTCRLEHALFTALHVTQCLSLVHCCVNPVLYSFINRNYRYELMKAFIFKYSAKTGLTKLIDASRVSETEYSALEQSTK
Reply numerically in nM, unit not repeated.

Worked examples follow.
CC(C)(CNC(=O)[C@@H]1CN(C2CCC2)CC[C@H]1NC(=O)c1cc(-c2ccc(F)cc2F)on1)c1ccccn1
342
CC(NC(=O)[C@@H]1CN(CC2CC2)CC[C@H]1NC(=O)c1cc(-c2ccc(F)cc2F)on1)c1ncccn1 (stereo partly drawn) [Example 4.080b]
15

// next item, IC50 requested
q: State its IC50 on human chemokine receptor CXCR7 (Homo sapiens (Human), UniProt P25106): C[C@@H]1CCC[C@H]1N1CC[C@@H](NC(=O)c2cc(-c3c(F)cc(F)cc3F)on2)[C@H](C(=O)N[C@H](C)c2cnccn2)C1 (relative stereo)
a: 410

====

molecular target: human chemokine receptor CXCR7 (Homo sapiens (Human), UniProt P25106); assay: Tango CXCR7-bla U2OS beta-arrestin recruitment assay (beta-lactamase reporter, FRET), antagonism of CXCL12/SDF1-α; format: cell-based; details: antagonistic effect on CXCR7; Tango CXCR7-bla U2OS cells, CXCL12/SDF1-α at its EC80;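 further: compounds preincubated 15 min before CXCL12 addition, then 22 h at 37 °C, FRET emission ratio read with CCF4-AM substrate after 2 h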
Could you mark each record Met if its IC50 falls strictly under 100 nM, and Not met if it equals or exceeds it?

Observe how each entry below is paired with its result.
COc1ccc(-c2cc(C(=O)N[C@@H]3CCN(CC4CC4)C[C@H]3C(=O)NC3(c4ncccn4)CC3)no2)c(F)c1 (racemic) [Example 1.195]
Not met
CC(NC(=O)[C@@H]1CN(CC2CC2)CC[C@H]1NC(=O)c1cc(-c2ccc(F)cc2F)on1)c1cccc[n+]1[O-] (stereo partly drawn) [Example 2.011]
Not met
O=C(N[C@@H]1CCN(CC2CC2)C[C@H]1C(=O)NC1(c2ccc(F)cn2)CC1)c1cc(-c2ccc(F)cc2F)no1 (racemic) [Example 1.163]
Not met
Cc1ccc(-c2cc(C(=O)N[C@H]3CCN(CC4CC4)C[C@@H]3C(=O)NC3(c4ncccn4)CC3)no2)c(C)c1 [Example 7.005]
Met
O=C(N[C@H]1CCN(C2CCCC2)C[C@@H]1C(=O)NC1(c2cnccn2)CC1)c1cc(-c2ccc(F)cc2F)on1 [Example 1.181]
Not met

q: Item O=C(N[C@@H]1CCN(C2CCCC2)C[C@H]1C(=O)NC1(c2ncccn2)CC1)c1cc(-c2c(F)cc(F)cc2F)on1 (racemic) [Example 1.176] : IC50 beneath 100 nM, strictly?
a: Met

q: Try this compound too: CC(NC(=O)[C@H]1CN(CC2CC2)CC[C@@H]1NC(=O)c1cc(-c2ccc(F)cc2F)on1)c1ccon1 (stereo partly drawn) [Example 4.049]
a: Not met

q: Try this compound too: O=C(N[C@@H]1CCN(C2CCCCC2)C[C@H]1C(=O)NC[C@H](O)c1ccccc1)c1cc(-c2ccc(F)cc2F)on1 (relative stereo) [Example 1.072]
a: Met

q: Try this compound too: CC(C)N1CC[C@@H](NC(=O)c2cc(-c3ccc(F)cc3F)on2)[C@H](C(=O)N(C)CCc2ccccc2)C1 [Example 2.003]
a: Met

q: Try this compound too: C[C@@H](NC(=O)[C@@H]1CN(CC2CC2)CC[C@H]1NC(=O)c1cc(-c2c(F)cc(F)cc2F)on1)C1CCC1 (single isomer, unassigned) [Example 1.139a]
a: Not met

q: Try this compound too: CN(C)C(=O)[C@@H]1CN(CC2=CCCC2)CC[C@H]1NC(=O)c1cc(-c2ccc(F)cc2F)on1 [Example 2.036]
a: Not met

q: Try this compound too: O=C(N[C@@H]1CCN(CC2CC2)C[C@H]1C(=O)NC1(c2ncccn2)CC1)c1cc(-c2ccc(F)c(F)c2F)on1 (single isomer, unassigned) [Example 1.194a]
a: Met
